- experiment-summary: Plasma exposures following oral administration to beagle dogs
- assay-context: male, beagle, dog, in vivo, po, 8.25 mg/kg, Prodrug formula 4-A Concentrations in Dog Plasma, Prodrug formula 4-A PO 8.25 mg/kg; 0.250 hrs; Mean
property-name: concentration at 0.25 h
Answer as a quantity: numeral, then unit.

# concentration at 0.25 h of "C#C[C@]1(COC(=O)OCc2oc(=O)oc2C)O[C@@H](n2cnc3c(N)nc(F)nc32)C[C@@H]1O" = 1.28 ng/mL

* * *

- experiment-summary: Liver S9 stability and conversion to EFdA
- Format: in vitro ADME, human
- assay-context: human liver S9, 37° C.
- Description: Intermediate solution: Dilute 5 μL of compounds or controls (7-ethoxycoumarin) from stock solution (10 mM) with 495 μL MeOH (Conc.: 100 μM, 1% DMSO, 99% MeOH). Stop solution: Cold ACN (including 100 ng/mL Tolbutamide and Labetalol as internal standard). Add 2 μL test compound or control working solution/well to all plates (T0, T5, T10, T20, T30, T60, NCF60) except matrix blank. […]
property-name: half-life at 1 µM

Observe how each entry below is paired with its result.
structure	half-life at 1 µM
C#C[C@]1(COC(=O)OCc2oc(=O)oc2C)O[C@@H](n2cnc3c(N)nc(F)nc32)C[C@@H]1O	< 50 min
C#C[C@]1(COC(=O)NC)O[C@@H](n2cnc3c(N)nc(F)nc32)C[C@@H]1O	50 to 200 min
C#C[C@]1(COC(=O)OCc2oc(=O)oc2C)O[C@@H](n2cnc3c(N)nc(F)nc32)C[C@@H]1OC(=O)OCc1oc(=O)oc1C	< 50 min
C#C[C@]1(CO)O[C@@H](n2cnc3c(NCc4oc(=O)oc4C)nc(F)nc32)C[C@@H]1O	< 50 min
C#C[C@]1(COC(=O)NC(C)C)O[C@@H](n2cnc3c(N)nc(F)nc32)C[C@@H]1O	50 to 200 min

# half-life at 1 µM of "C#C[C@]1(CO)O[C@@H](n2cnc3c(NC(=O)OC(C)C)nc(F)nc32)C[C@@H]1O" = 50 to 200 min

# half-life at 1 µM of "C#C[C@]1(COC(=O)NCCN(C)Cc2oc(=O)oc2C)O[C@@H](n2cnc3c(N)nc(F)nc32)C[C@@H]1O" = < 50 min

* * *

- experiment-summary: Plasma exposures following oral administration to beagle dogs
- assay-context: male, beagle, dog, in vivo, po, 5 mg/kg, EFdA Concentrations in Dog Plasma, EFdA PO 5 mg/kg; 0.250 hrs; individual animals
property-name: concentration at 0.25 h (ng/mL)
# unit: ng/mL | format: bare number

# concentration at 0.25 h of C#C[C@]1(CO)O[C@@H](n2cnc3c(N)nc(F)nc32)C[C@@H]1O [Formula T-1A, reference compound] = 456

* * *

- experiment-summary: Plasma exposures following oral administration to beagle dogs
- assay-context: male, beagle, dog, in vivo, po, 5 mg/kg, EFdA Concentrations in Dog Plasma, EFdA PO 5 mg/kg; 2.00 hrs; Mean
property-name: concentration at 2 h (ng/mL)
# unit: ng/mL | format: bare number

# concentration at 2 h of C#C[C@]1(CO)O[C@@H](n2cnc3c(N)nc(F)nc32)C[C@@H]1O [Formula T-1A, reference compound] = 189

* * *

- experiment-summary: Plasma exposures following IV infusion alone or in combination to Sprague-Dawley rats
- assay-context: male, Sprague-Dawley, rat, in vivo, 1 mg/kg, Lenacapavir Concentrations in Rat Plasma When Dosed Alone, Lenacapavir IV infusion 1.0 mg/kg alone; 24.0 hrs; individual animals
property-name: concentration at 24 h (ng/mL)
# unit: ng/mL | format: bare number

# concentration at 24 h of CC(C)(C#Cc1ccc(-c2ccc(Cl)c3c(NS(C)(=O)=O)nn(CC(F)(F)F)c23)c([C@H](Cc2cc(F)cc(F)c2)NC(=O)Cn2nc(C(F)(F)F)c3c2C(F)(F)[C@@H]2C[C@H]32)n1)S(C)(=O)=O [Lenacapavir, reference compound] = 141

* * *

- experiment-summary: Plasma exposures following IV infusion alone or in combination to Sprague-Dawley rats
- assay-context: male, Sprague-Dawley, rat, in vivo, 1 mg/kg, Lenacapavir Concentrations in Rat Plasma When Dosed Alone, Lenacapavir IV infusion 1.0 mg/kg alone; 0.167 hrs; individual animals
property-name: concentration at 0.167 h (ng/mL)
# unit: ng/mL | format: bare number

# concentration at 0.167 h of CC(C)(C#Cc1ccc(-c2ccc(Cl)c3c(NS(C)(=O)=O)nn(CC(F)(F)F)c23)c([C@H](Cc2cc(F)cc(F)c2)NC(=O)Cn2nc(C(F)(F)F)c3c2C(F)(F)[C@@H]2C[C@H]32)n1)S(C)(=O)=O [Lenacapavir, reference compound] = 694

* * *

- experiment-summary: Plasma exposures following oral administration to beagle dogs
- assay-context: male, beagle, dog, in vivo, po, 5 mg/kg, EFdA Concentrations in Dog Plasma, EFdA PO 5 mg/kg; 0.500 hrs; Mean
property-name: concentration at 0.5 h (ng/mL)
# unit: ng/mL | format: bare number

# concentration at 0.5 h of C#C[C@]1(CO)O[C@@H](n2cnc3c(N)nc(F)nc32)C[C@@H]1O [Formula T-1A, reference compound] = 323

* * *

- experiment-summary: Plasma stability and conversion to EFdA
- assay-context: human plasma
property-name: Stability in Human Plasma Formation of EFdA

Observe how each entry below is paired with its result.
molecule	observed-value
C#C[C@]1(COC(=O)OCc2oc(=O)oc2C)O[C@@H](n2cnc3c(N)nc(F)nc32)C[C@@H]1O [Formula 4-A]	Yes
C#C[C@]1(COC(=O)OCc2oc(=O)oc2C)O[C@@H](n2cnc3c(N)nc(F)nc32)C[C@@H]1OC(=O)OCc1oc(=O)oc1C [Formula 4-C]	Yes
C#C[C@]1(CO)O[C@@H](n2cnc3c(NCc4oc(=O)oc4C)nc(F)nc32)C[C@@H]1O [Formula 6-A]	No
C#C[C@]1(CO)O[C@@H](n2cnc3c(NC(=O)OC(C)C)nc(F)nc32)C[C@@H]1O [Formula 3-A]	No
C#C[C@]1(COC(=O)NCCN(C)Cc2oc(=O)oc2C)O[C@@H](n2cnc3c(N)nc(F)nc32)C[C@@H]1O [Formula 7-A]	No

# Stability in Human Plasma Formation of EFdA of C#C[C@]1(COC(=O)NC)O[C@@H](n2cnc3c(N)nc(F)nc32)C[C@@H]1O [Formula 5-A] = No

# Stability in Human Plasma Formation of EFdA of C#C[C@]1(COC(=O)NC(C)C)O[C@@H](n2cnc3c(N)nc(F)nc32)C[C@@H]1O [Formula 2-A] = No

* * *

- experiment-summary: Plasma exposures following IV infusion alone or in combination to Sprague-Dawley rats
- assay-context: male, Sprague-Dawley, rat, in vivo, 1 mg/kg, Lenacapavir Concentrations in Rat Plasma When Dosed Alone, Lenacapavir IV infusion 1.0 mg/kg alone; 0.500 hrs; individual animals
property-name: concentration at 0.5 h
Answer as a quantity: numeral, then unit.

# concentration at 0.5 h of CC(C)(C#Cc1ccc(-c2ccc(Cl)c3c(NS(C)(=O)=O)nn(CC(F)(F)F)c23)c([C@H](Cc2cc(F)cc(F)c2)NC(=O)Cn2nc(C(F)(F)F)c3c2C(F)(F)[C@@H]2C[C@H]32)n1)S(C)(=O)=O [Lenacapavir, reference compound] = 980 ng/mL

* * *

- experiment-summary: Plasma exposures following IV infusion alone or in combination to Sprague-Dawley rats
- assay-context: male, Sprague-Dawley, rat, in vivo, 1 mg/kg, Lenacapavir Concentrations in Rat Plasma When Dosed Alone, Lenacapavir IV infusion 1.0 mg/kg alone; 4.00 hrs; individual animals
property-name: concentration at 4 h (ng/mL)
# unit: ng/mL | format: bare number

# concentration at 4 h of CC(C)(C#Cc1ccc(-c2ccc(Cl)c3c(NS(C)(=O)=O)nn(CC(F)(F)F)c23)c([C@H](Cc2cc(F)cc(F)c2)NC(=O)Cn2nc(C(F)(F)F)c3c2C(F)(F)[C@@H]2C[C@H]32)n1)S(C)(=O)=O [Lenacapavir, reference compound] = 171

* * *

- experiment-summary: Plasma exposures following IV infusion alone or in combination to Sprague-Dawley rats
- assay-context: male, Sprague-Dawley, rat, in vivo, Lenacapavir Concentrations in Rat Plasma When Dosed with Prodrug formula 4-A, Lenacapavir IV infusion 1.0 mg/kg with Prodrug formula 4-A; 0.250 hrs; Mean
property-name: concentration at 0.25 h (ng/mL)
# unit: ng/mL | format: bare number

# concentration at 0.25 h of CC(C)(C#Cc1ccc(-c2ccc(Cl)c3c(NS(C)(=O)=O)nn(CC(F)(F)F)c23)c([C@H](Cc2cc(F)cc(F)c2)NC(=O)Cn2nc(C(F)(F)F)c3c2C(F)(F)[C@@H]2C[C@H]32)n1)S(C)(=O)=O [Lenacapavir, reference compound] = 590
